Consider the following molecules and their measured GI50 readings.
System: BT-549
method-notes: NCI tumour cell line growth inhibition, 48 h
The source made the active and inactive calls. No stated cut-off is given here; in the data, active = GI50 up to about 1.1 µM and inactive = higher.

molecule: COc1ccc(N2C(=O)C3c4[nH]c5ccccc5c4C4C(C)CCCC4C3C2=O)cc1 (stereo unspecified)
GI50: 3.64 µM (inactive)
--
molecule: O=C(O)Cc1cc(F)ccc1C(=O)O
GI50: > 100 µM (inactive)
--
molecule: BC(=O)NC(CC(C)C)C(=O)NCC(=O)NC1c2ccsc2C(=O)C1O.CN(C)C (stereo unspecified)
GI50: > 100 µM (inactive)
--
molecule: COc1ccccc1/C=C/C1=NN(c2cccc(S(=O)(=O)O)c2)C2(C1)C(Cl)C(=O)N2c1nc2ccccc2s1 (stereo unspecified)
GI50: 49.2 µM (inactive)
--
molecule: CC(=O)Oc1ccccc1C(=O)Nc1ncc([N+](=O)[O-])s1 [NITAZOXANIDE]
GI50: 14.4 µM (inactive)
--
molecule: CNC(=O)OCCN1c2ccccc2Sc2ccccc21
GI50: > 100 µM (inactive)
--
molecule: C[C@@H](c1ccccc1)N1CN(C(=O)OCc2ccccc2)C(C)(C)CC1=O
GI50: > 100 µM (inactive)
--
molecule: CC(C)(C)n1c(=O)[nH]c(=O)n1C(C)(C)C
GI50: > 100 µM (inactive)
--
molecule: CC(=O)OCCn1c(Cc2ccc(C)cc2)nn(C(C)=O)c1=O
GI50: > 100 µM (inactive)
--
molecule: C(=N\c1ccc(-c2nc3ccccc3s2)cc1)/c1cccs1
GI50: 56.2 µM (inactive)
--
molecule: C=C(Br)COc1ccc2c(C)cc(=O)oc2c1
GI50: > 100 µM (inactive)

---

Test system: MDA-MB-231
method-notes: NCI tumour cell line growth inhibition, 48 h
Active and inactive are the calls of the source. Cut-off read from the data, not from the text of the source: active = GI50 up to about 1.1 µM and inactive = higher.
Outcome codes: class 1 for active, class 0 for inactive

compound: CO/N=C/c1c(-c2ccc(Cl)cc2)c(/C=N/OC)n2c1sc1ccccc12
assigned-category: class 0
//
compound: Cc1cc(C)c2c(c1)C/C(=C\c1cccc(C)c1C(=O)O)C2=O
assigned-category: class 0
//
compound: CCOC(=O)c1c(N2CCCC2)[nH]c(=O)c(C(c2ccc(OC)cc2)c2c(O)c(C(=O)OCC)c(N3CCCC3)[nH]c2=O)c1O
assigned-category: class 0
//
compound: COC(=O)C(NC(=O)C12CCC(C)(C(=O)O1)C2(C)C)c1cc(C(C)(C)C)c(O)c(C(C)(C)C)c1 (stereo not drawn)
assigned-category: class 0
//
compound: c1cncc(CC2(c3cc4ccccc4[nH]3)OCCO2)c1
assigned-category: class 0
//
compound: CCCCCCCCCCCCCCCCOC[C@@H](COC(c1ccccc1)(c1ccccc1)c1ccccc1)O[PH](=S)OC (stereo partly drawn)
assigned-category: class 0
//
compound: COc1ccccc1/C=C/C1=NN(c2cccc(S(=O)(=O)O)c2)C2(C1)C(Cl)C(=O)N2c1nc2ccccc2s1 (stereo not drawn)
assigned-category: class 0
//
compound: CC(C)CCNC(=O)c1ccc(CNC(=O)/C=C/c2ccc3c(c2)-c2ccccc2C3)cc1
assigned-category: class 0
//
compound: CC12OC1(C)C1C(=O)OCC1C2=O (stereo not drawn)
assigned-category: class 0
//
compound: CCOC(=O)NC(NNc1ccc([N+](=O)[O-])cc1[N+](=O)[O-])(C(F)(F)F)C(F)(F)F
assigned-category: class 0
//
compound: Cc1ccc(C(O)c2cnc(C)n2Cc2ccccc2)cc1 (stereo not drawn)
assigned-category: class 0
//
compound: O=C(Nc1ccc(Cl)cc1)NS(=O)(=O)c1coc2ccccc2c1=O
assigned-category: class 0
//
compound: CCCCC[C@@H]1OC(=O)[C@@]2(CC3c4ccccc4C2c2ccccc23)[C@H]1C(=O)OC
assigned-category: class 0
//
compound: O=C(O)[C@@H]1CSCN1C(=O)[C@@H]1CCC(=S)N1
assigned-category: class 0
//
compound: O=C(/N=S(/NC(=O)c1ccccc1)C(Cl)(Cl)Cl)c1ccccc1 (stereo not drawn)
assigned-category: class 0
//
compound: O=C(/C=N/O)c1c(-c2ccccc2)[nH]c(-c2ccccc2)c1-c1ccccc1
assigned-category: class 0
//
compound: CCCCCCCCC[C@@H]1C[C@@H]2CCC3C(C(=O)OCCCCNC(=O)OCc4ccccc4)=C(C)N=C(N1)N32 (stereo partly drawn)
assigned-category: class 0
//
compound: C=CCSC1=N/C(=C\c2ccco2)C(=O)N1CC=C
assigned-category: class 0
//
compound: C[C@]12CC[C@H]3[C@@H](CCC4=CC(=O)CC[C@@]43C)[C@@H]1CC[C@@H]2C(=O)COS(=O)(=O)c1ccc(Br)cc1
assigned-category: class 0
//
compound: CCOC(=O)c1ccc(NC2Oc3cc4c(cc3C(c3cc(OC)c(OC)c(OC)c3)C2C)OCO4)cc1 (stereo not drawn)
assigned-category: class 1
//
compound: COc1ccc2c(c1)c1ccc3c(c1n2C)C(=O)C=CC3=O
assigned-category: class 0
//
compound: COc1ccc(C(=O)NC2=C(Cl)C(=O)c3ccccc3C2=O)cc1
assigned-category: class 0
//
compound: COc1ccc(/N=C2\C(=N/c3ccc(OC)cc3)N(c3ccccc3[N+](=O)[O-])C(=S)N2c2ccc(OC)cc2)cc1
assigned-category: class 0
